tested on: MS2 coat protein; test: apparent KD of MS2 coat protein; designed switch direction (-1 OFF switch, 1 ON switch): -1; higher = weaker reporter binding; details: Eterna round: R95; input ligand: microRNA oligo, concentration not stated
# apparent KD of MS2 coat protein >= 0.03 µM gives criterion met, anything below gives criterion not met

Prompt line: Check if apparent KD of MS2 coat protein >= 0.03 µM (inclusive). Item: ACCUCACAUGAGGAUCACCCAUGUCAGGAUAUGUACCCGAUCAAGUCAGAGAUCGGAAGCAGAAGGGACUGCGG [Bemabebe] (puzzle: Exclusion 1)
Response line: criterion met

Prompt line: API: above_or_equal(metric=apparent KD of MS2 coat protein, cutoff=0.03 µM) for item AUGAGCAGACGGAGAUCCAACAUGAGGAUCACCCAUGUCUCAAAAGCUUUUUGCUCAUCUUAUUGUACCUUGGUGCU [Mat - Sensor v3 - turn-off var 1 - JL Mod - D16] (puzzle: Sensor v3, turn-off variant 1)
Response line: criterion not met

Prompt line: Please check the record AAGCGACGAGGAUAUCGGUGGCUGAACAUGAGGAUCACCCAUGUGAACCGAUGGCAGUGUCGAGAAGGUGUUGAGU [Teceenla] (puzzle: Exclusion 5) and state if its apparent KD of MS2 coat protein is at or above 0.03 µM.
Response line: criterion not met

Prompt line: Can AAGAAACAUGAGGAUCACCCAUGUGAGGAUAUGAUUAAGAAAAGAAAAGAAAGAAGAUUCAGAAGGCACAAAGG [salish99-ex1_r3_054] (puzzle: Exclusion 1) be said to have apparent KD of MS2 coat protein at or above 0.03 µM?
Response line: criterion met

Prompt line: Does the sequence GCAUCCAGUGUGAGGAUAUACCUCUGGAUACAUAGGUAGAAGGCACAUGAGGAUCACCCAUGUCCUAAGGAUGC [Fiskers BMX 4 - 29] (puzzle: Brourd's mod of Exclusion 4) have recorded apparent KD of MS2 coat protein that is 0.03 µM or more?
Response line: criterion met

Prompt line: Does UUUUAACAUGAGGAUCACCCAUGUGAGGAUAUCGAAAUUUAUAUUUAUAUUAAUAUUACGAGAAGGCACAUUUU [JMF 82] (puzzle: Exclusion 1) have a reported apparent KD of MS2 coat protein of at least 0.03 µM?
Response line: criterion met

Prompt line: Is reported apparent KD of MS2 coat protein greater than or equal to 0.03 µM here: CUUUUGUGAGGAUAUCAGUAGUAAUAAUAUAAAAUUACUACUGAGAAGGCACAUGAGGAUCACCCAUGUUCCUC [salish99_ex3_r3_102] (puzzle: Exclusion 4)
Response line: criterion met

Prompt line: Kindly determine if apparent KD of MS2 coat protein recorded for CAUGGAUGUGAGCCGCAUUACAUGAGGAUCACCCAUGUCAACAAGCUUUUUGCUUGUCUUACGCGGCGGCAUCUAAA [Abebies] (puzzle: Sensor v3, turn-off variant 1) is above or exactly 0.03 µM.
Response line: criterion not met

Prompt line: Is apparent KD of MS2 coat protein for GAUACCCAAGUCAGGAUAUCGGGAUACGAAAGUCACGAGAAGGGACAUGAGGAUCACCCAUGUAAAUAAAUAAA [Arege] (puzzle: Brourd's mod of Exclusion 4) at or above 0.03 µM?
Response line: criterion met

Prompt line: Does apparent KD of MS2 coat protein meet or surpass 0.03 µM for UGUGCGUAUGUGAGGAUAUGCUGGUCCUUGGCUCGGCAGAAGGCACAUGAGGAUCACCCAUGUGGUGUCGUACG [salish99_Bmod_ex4_064] (puzzle: Brourd's mod of Exclusion 4) ?
Response line: criterion met

Prompt line: Confirm if apparent KD of MS2 coat protein reported for the sequence CCGAAUAAGCAGGAUAUCGUAUCGGAAACGAUACGAGAAGGGUUAACAUGAGGAUCACCCAUGUUCCUUAACGG [Fiskers Ex 6 - 17] (puzzle: Exclusion 6) is 0.03 µM or above.
Response line: criterion not met

---

system: MS2 coat protein; experiment: apparent KD of MS2 coat protein; designed switch direction (-1 OFF switch, 1 ON switch): -1; higher = weaker reporter binding; conditions: input ligand: FMN 200 uM
recorded.endpoint: apparent KD of MS2 coat protein (µM)
Provide only the numeric value, understood in µM.

Prompt line: Quick one: apparent KD of MS2 coat protein of GGCAGGCUAGAGGAUAUGCAUUGGCUUGGCCAAGCAGAAGGCUAGACAUGAGGAUCACCCAUGUGUUCCUUGUG [jl-ex6-4.36 ViennaUCT mod] (Eterna round: R97, puzzle: Exclusion 6) ?
Response line: 0.0835

Prompt line: Look up apparent KD of MS2 coat protein: ACAUGAGGAUCACCCAUGUCCGGCUGGUCCGUUUCGGCUGUCGAGGAUAUAGUUCGGUGUCCGCGCUAGAAGGCGGGAGCUGGC [Aenatbe mod 61] (Eterna round: R96, puzzle: Exclusion NG 3)
Response line: 0.181

Prompt line: apparent KD of MS2 coat protein lookup needed for UCAGGAGCAGGAUAUGCAAUCGUGCUUCGGCACGUAAGGUCACAUGAGGAUCACCCAUGUAGAAGGGCUCCUGA [E2/4-D2] (Eterna round: R97, puzzle: Exclusion 2) , thanks.
Response line: 0.0384

Prompt line: Sample GCAGCUAACACAGAUAUGUGGACAUGAGGAUCACCCAUGUCACAGGAUAUGGACUGGAUUACAGUCCAGAAGGGUGAAUGCUGC [Zipper Style 5] (Eterna round: R96, puzzle: Exclusion NG 3) — what was its apparent KD of MS2 coat protein?
Response line: 0.00825

Prompt line: What measured apparent KD of MS2 coat protein goes with GCCUUAUGAGUCAGGAUAUACAAUAAAAUAAUUAAGUAGAAGGGACAUGAGGAUCACCCAUGUACAUUACAUUG [alecazam28] (Eterna round: R97, puzzle: Brourd's mod of Exclusion 4) ?
Response line: 0.0824

Prompt line: Which apparent KD of MS2 coat protein is reported for this sequence? GAUAUGUAAGGAUAUCUAGAAACGAGCGCAGGCUCAAGAAAAGAGAAGGUACAUGAGGAUCACCCAUGUUCCUG [EX4 A.13] (Eterna round: R97, puzzle: Exclusion 4)
Response line: 0.0211

Prompt line: Requested field: apparent KD of MS2 coat protein. Item: CCUCAGUCACAGGAUAUGCUCAUCUAAUGAUGAGCAGAAGGGUGAACAUGAGGAUCACCCAUGUUUACGGUGGU [Omei Ex6 E8] (Eterna round: R97, puzzle: Exclusion 6)
Response line: 0.122

Prompt line: What does the data say about its apparent KD of MS2 coat protein? Entry: UCCUGACAUGAGGAUCACCCAUGUAAGGAUAUCAGCCACCCAGCAAAAGCUGGGCAAGUGAGAAGGUACACGGG [EX1 A.30] (Eterna round: R97, puzzle: Exclusion 1)
Response line: 0.157

Prompt line: Which apparent KD of MS2 coat protein value is on record for GCACGAAGUGUAGGAUAUCUGUGCGAUUAGCUCAGAGAAGGACACAUGAGGAUCACCCAUGUGUUCCAAUACCCAAAUACGUGC [Eli exng1 - 061] (Eterna round: R96, puzzle: Exclusion NG 1) ?
Response line: 0.011

Prompt line: For the sequence shown here, GCACGGAGUGUAGGAUAUCUGUGCGAUUAGCUCAGAGAAGGACACAUGAGGAUCACCCAUGUGUUCCACGGAAACGAACCGUGC [Eli exng1 - 052] (Eterna round: R96, puzzle: Exclusion NG 1) , give the reported apparent KD of MS2 coat protein.
Response line: 0.0118

---

Would you kindly list apparent KD of MS2 coat protein for each of these sequences?
test system: MS2 coat protein; assay: apparent KD of MS2 coat protein, switch ON state; designed switch direction (-1 OFF switch, 1 ON switch): -1; higher = weaker reporter binding; details: FMN input: 0 or 200 uM; Eterna round: R93 (includes R88 designs)

Prompt line: Fill blank: measured apparent KD of MS2 coat protein of the sequence AAAAAGUGAGGAUAUACAUGAGGAUCACCCAUGUAAUAAAAAAAAAGGGUGGAAGAAAGUAGAAGGCACCAAAA [Ex 3 May 48] is ____.
Response line: 48.2 nM

Prompt line: Given the sequence AAAUUGUGAGGAUAUCUGGAUAGGAAAAAGAAAACCUAUCCAGAGAAGGCACAUGAGGAUCACCCAUGUAAAAA [JL cataway mod 5] , what is its reported apparent KD of MS2 coat protein?
Response line: 61.7 nM

Prompt line: Give its apparent KD of MS2 coat protein value. Item: AAGAACGGAGGAUAUACAUGAGGAUCACCCAUGUAAAAGAAAGAGGGAAAAGAGAAAAGUAGAAGGCCGAAGAA [Haaibre Alexander IV]
Response line: 28 nM

---

For each of the sequences below, state its apparent KD of K4 kissing-loop reporter.
tested on: K4 kissing-loop RNA reporter; assay: apparent KD of K4 kissing-loop reporter; higher = weaker reporter binding; conditions: Eterna round: R107; input ligand: tryptophan 2.4 mM;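 note: bound reporter read as fluorescence of individual clusters on recovered sequencing chips by microscopy, with normalized cluster intensities fitted with a binding model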
# value in nM; strip the unit string

Prompt line: Recorded apparent KD of K4 kissing-loop reporter for UGAUACCAGACGGCCGCCACUCCUGCAAGUCAAAGACUUGCUAAAAGGAUCGUCCAGUGAUGUUGGAGGACCGGGUCUGGUAUCU [TrypBX 19 #SwitchBubble #Palindromic #StaticStem] , please?
Response line: 486

Prompt line: So what's the measured apparent KD of K4 kissing-loop reporter for this one? AAUGUAUGGCACAUGAGUGAUGUUCAUGUCCGAGGACCGGUACGGCCGCCACUCGGUCCUGGGUUCUUAUUACUAUACAUUAAUG [KL-XTryp-A2 #analogue]
Response line: 289

Prompt line: What value of measured apparent KD of K4 kissing-loop reporter is listed for GAGGUGGAGUGAUGUUCCACACUCGCUAGUAAGGAUAUGGCUGCUUCCAGAAGGUACCUAGAUUCAGUGUGCAUCAGUAACGUGC [theeternabot_exclusion_KL_FMN_A_4] ?
Response line: 96.3

Prompt line: Any idea what its apparent KD of K4 kissing-loop reporter is? The sequence is UAUAGACAAGUGAUGUUUGUCAUAUCCGAAGGAGCGUCUUCUAAGACAGGUAGGUCGCGGAUUAAUUUUGUUAUGAUACUAUUUA [JR_SSArginiA_Sub016]
Response line: 104

Prompt line: Which apparent KD of K4 kissing-loop reporter value belongs to GUGCGGCUAGUGAUGUUGGUUGUGUGGGAAGGAGCGCAGAUUCAUGCAGGUAGGUCGCCCACACCUCUGAAAGGAGGCUAAUUCA [KL-SSArg-A16] ?
Response line: 331

Prompt line: // query apparent KD of K4 kissing-loop reporter value for entry AGUGAUAUAUGAGGAUAUGGGUUUGUUAAUGAGUUAUUUUUAGUGUUGUUUGGUUAGUGAUGUUAUUUAGAAGGCGUGAGUGAUG [rrwswwmjmullin]
Response line: 76.5
